- Tested on: Brown Dog Tick (Rhipicephalus sanguineus)
- assay info: Dose response protocol for topical application on brown dog ticks (LD50)
- Assay type: in vivo
- reported conditions: 24 h mortality
Lab note: compare R. sanguineus LD50 with 2 μg/tick, writing Y if less and N if equal or more.

Please review the entries below; each comes with its answer.
| compound | discrete label |
| --- | --- |
| C/C(=N\OC(C)(C)C)c1cc(Cl)ccc1NS(=O)(=O)C(F)(F)F [Compound 223] | Y |
| CCCCO/N=C(\CC)c1cc(Cl)ccc1NS(=O)(=O)C(F)(F)F [Compound 245] | N |
| CC/C(=N\OC1CCCC1)c1cc(Cl)ccc1NS(=O)(=O)C(F)(F)F [Compound 155] | Y |
| CC(C)ON=C(c1cc(Cl)ccc1NS(=O)(=O)C(F)(F)F)C1CCCCC1 (racemic) [Compound 210] | N |
| CC/C(=N\OCc1ccc(Cl)cc1)c1cc(Cl)ccc1NS(=O)(=O)C(F)(F)F [Compound 11] | N |
| C/C(=N\Oc1ccc(F)cc1)c1cc(Cl)ccc1NS(=O)(=O)C(F)(F)F [Compound 129] | Y |
| C/C(=N\OCC(F)(F)F)c1cc(Cl)ccc1NS(=O)(=O)C(F)(F)F [Compound 186] | Y |
| CCC/C(=N\OCC)c1cc(Cl)ccc1NS(=O)(=O)C(F)(F)F [Compound 193] | Y |

Exercise: Identify whether the compound C/C(=N\OC(C)C1CC1)c1cc(Cl)ccc1NS(=O)(=O)C(F)(F)F (centres unmarked) [Compound 253] records R. sanguineus LD50 below 2 μg/tick.
Key: N

Exercise: Report whether reported R. sanguineus LD50 is lower than 2 μg/tick (strictly) for COCCO/N=C(\C)c1cc(Cl)ccc1NS(=O)(=O)C(F)(F)F [Compound 185]
Key: Y

Exercise: Just wondering, is R. sanguineus LD50 of CC/C(=N\OC(C)(C)C)c1cc(Cl)ccc1NS(=O)(=O)C(F)(F)F [Compound 224] below 2 μg/tick?
Key: Y

Exercise: Hello, is R. sanguineus LD50 of the following compound strictly smaller than 2 μg/tick? CCC(C)O/N=C(\C)c1cc(Cl)ccc1NS(=O)(=O)C(F)(F)F (centres unmarked) [Compound 242]
Key: N

Exercise: Identify whether the compound C/C(=N\OCC1CC1)c1cc(Cl)ccc1NS(=O)(=O)C(F)(F)F [Compound 187] records R. sanguineus LD50 below 2 μg/tick.
Key: Y

----------
- System: cat flea (Ctenocephalides felis)
- assay info: whole plant or invertebrate
- Format: in vivo
- reported conditions: Ctenocephalides felis, 8 h, read-out: C. felis Mortality (%) 8 h, 8 h; Laboratory 1 A data
measured parameter: mortality at 1.26 µg/cm2, 1.26 µg/cm2 (%)
Report only the number, with the unit % understood.

Exercise: Which mortality at 1.26 µg/cm2, 1.26 µg/cm2 value is on record for `C/C(=N\OCC=C(Cl)Cl)c1cc(Cl)ccc1NS(=O)(=O)C(F)(F)F` ?
Key: 8

Exercise: For the compound shown here, `CC/C(=N\OCc1ccc(C(F)(F)F)cc1C(F)(F)F)c1cc(Cl)ccc1NS(=O)(=O)C(F)(F)F` , give the reported mortality at 1.26 µg/cm2, 1.26 µg/cm2.
Key: 100

Exercise: Param item = `CC(C)/C(=N\OCc1ccc(C(F)(F)F)cc1C(F)(F)F)c1cc(Cl)ccc1NS(=O)(=O)C(F)(F)F` ; retrieve measured mortality at 1.26 µg/cm2, 1.26 µg/cm2.
Key: 10

Exercise: Given the compound `CCC/C(=N\OCc1ccc(C(F)(F)F)cc1)c1cc(Cl)ccc1NS(=O)(=O)C(F)(F)F` , what is its reported mortality at 1.26 µg/cm2, 1.26 µg/cm2?
Key: 36

----------
- Tested on: Brown Dog Tick (Rhipicephalus sanguineus)
- assay info: Rapid screening protocol for topical application on brown dog ticks
- Format: in vivo
- reported conditions: 24 h; topical, 10 μg of active per tick in 1 μL acetone; adult ticks; Laboratory 1 E data
measured parameter: Rhipicephalus sanguineus Mortality (%) 24 h
Just the number in %, nothing appended.

| structure as smiles | measured number |
| --- | --- |
| CCCCc1cc(-c2cc(Cl)ccc2NS(=O)(=O)C(F)(F)F)no1 | 67 |
| CCOC(=O)N(c1ccc(Cl)cc1/C(C)=N/Oc1ccc(F)cc1)S(=O)(=O)C(F)(F)F | 52 |
| CC/C(=N\OCc1ccc(Cl)cc1)c1cc(Cl)ccc1N(COC(=O)C(C)(C)C)S(=O)(=O)C(F)(F)F | 2 |

Lab note: next molecule to report on.
Exercise: Entry under review: `CC/C(=N\OCc1ccc(Cl)cc1)c1cc(Cl)ccc1N(C(C)=O)S(=O)(=O)C(F)(F)F` . Reported Rhipicephalus sanguineus Mortality (%) 24 h?
Key: 5

----------
- System: cat flea (Ctenocephalides felis)
- assay info: whole plant or invertebrate
- Format: in vivo
- reported conditions: Ctenocephalides felis, 8 h, read-out: C. felis Mortality (%) 8 h, 8 h; Laboratory 1 A data
Recorded mortality at 1.26 µg/cm2, 1.26 µg/cm2 for the following compounds
Just the number please, in %, no unit attached.

Solved cases below.
| structure as smiles | unit text | mortality at 1.26 µg/cm2, 1.26 µg/cm2 |
| --- | --- | --- |
| CC/C(=N\OC/C=C/c1ccccc1)c1cc(Cl)ccc1NS(=O)(=O)C(F)(F)F | % | 6 |
| CC/C(=N\OCc1ccc(F)cc1F)c1cc(Cl)ccc1NS(=O)(=O)C(F)(F)F | % | 95 |
| O=S(=O)(Nc1ccc(Cl)cc1/C(=N/OCc1ccc(Cl)cc1Cl)c1ccccc1)C(F)(F)F | % | 17 |

Exercise: Entry `O=S(=O)(Nc1ccc(Cl)cc1/C(=N/OCc1ccc(Cl)c(Cl)c1)c1ccccc1)C(F)(F)F` has what mortality at 1.26 µg/cm2, 1.26 µg/cm2?
Key: 5

----------
Item-by-item account of C. felis LC50
- System: cat flea (Ctenocephalides felis)
- assay info: Ctenocephalides felis adulticide assay: dose response (LC50)
- Format: in vivo
- reported conditions: Laboratory 1 C data
Hi! Could you send only the number? It should be in μg/cm^2, unit omitted.

These recorded examples may help you get a feel for the data.
| molecule | unit text | C. felis LC50 |
| --- | --- | --- |
| C/C(=N\OC(C)c1ccc(Cl)cc1)c1cc(Cl)ccc1NS(=O)(=O)C(F)(F)F (centres unmarked) | μg/cm^2 | 1.2 |
| C/C(=N\OC(C)C)c1cc(Cl)ccc1NS(=O)(=O)C(F)(F)F | μg/cm^2 | 0.2 |
| CC/C(=N\OC1CCCCC1)c1cc(Cl)ccc1NS(=O)(=O)C(F)(F)F | μg/cm^2 | 0.3 |
| CC/C(=N\Oc1ccc(F)cc1)c1cc(Cl)ccc1NS(=O)(=O)C(F)(F)F | μg/cm^2 | 0.2 |
| CC/C(=N\OCC(C)C)c1cc(Cl)ccc1NS(=O)(=O)C(F)(F)F | μg/cm^2 | 0.2 |

Exercise: Look at this molecule and give its reported C. felis LC50. `CC/C(=N\Oc1ccc(Cl)cc1)c1cc(Cl)ccc1NS(=O)(=O)C(F)(F)F`
Key: 0.08

Exercise: Dear colleague, I am looking for the recorded C. felis LC50 of the following molecule: `CC/C(=N\OCc1ccc(Cl)cc1)c1cc(Cl)ccc1NS(=O)(=O)C(F)(F)F`
Key: 0.1

Exercise: Record request: C. felis LC50 value, item `C/C(=N\Oc1cccc(C(F)(F)F)c1)c1cc(Cl)ccc1NS(=O)(=O)C(F)(F)F`
Key: 0.4

Exercise: Which C. felis LC50 reading was recorded for the molecule `C/C(=N\Oc1cccc(Cl)c1)c1cc(Cl)ccc1NS(=O)(=O)C(F)(F)F` ?
Key: 0.2

Exercise: Tell me the measured C. felis LC50 of `C/C(=N\Oc1ccc(Cl)cc1)c1cc(Cl)ccc1NS(=O)(=O)C(F)(F)F` , please.
Key: 0.3

----------
Listed below: mortality at 1.26 µg/cm2, 1.26 µg/cm2 values for each entry.
- System: cat flea (Ctenocephalides felis)
- assay info: whole plant or invertebrate
- Format: in vivo
- reported conditions: Ctenocephalides felis, 8 h, read-out: C. felis Mortality (%) 8 h, 8 h; Laboratory 1 A data
The reply should be a number in %, with the unit left off.

| structure as smiles | measured parameter | measured number |
| --- | --- | --- |
| O=S(=O)(Nc1ccc(Cl)cc1/C(=N/OCc1ccc(C(F)(F)F)cc1C(F)(F)F)c1ccccc1)C(F)(F)F | mortality at 1.26 µg/cm2, 1.26 µg/cm2 | 21 |
| C/C(=N\OCc1ccc(Cl)cc1Cl)c1cc(Cl)ccc1NS(=O)(=O)C(F)(F)F | mortality at 1.26 µg/cm2, 1.26 µg/cm2 | 5 |
| O=S(=O)(Nc1ccc(Cl)cc1/C=N/OCc1ccc(Cl)cc1Cl)C(F)(F)F | mortality at 1.26 µg/cm2, 1.26 µg/cm2 | 12 |

Next compound, mortality at 1.26 µg/cm2, 1.26 µg/cm2 to be filled in.
Exercise: Consider the compound `CC/C(=N\OCc1cc(Br)cc(Br)c1)c1cc(Cl)ccc1NS(=O)(=O)C(F)(F)F` and give its measured mortality at 1.26 µg/cm2, 1.26 µg/cm2.
Key: 3
